B1: ZNF263 (parent)
chain: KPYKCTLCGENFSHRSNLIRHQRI

Variants of: B1
Assay: protein stability index of a GFP-peptide fusion (GPS, HEK-293T) (PSI 1-6); higher = more stable;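 also: lentivirally expressed fusions sorted by FACS into six bins by GFP to DsRed ratio, PSI derived from sequencing read proportions per bin multiplied by bin number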
Conditions: c terminus: a fixed tail appended
Endpoint: protein stability index
Number, no unit, nothing else.

H14G | 1.97
C5Y | 1.96
Q22D | 2.01

API: the following record is the query input.
-- ask Name the reported protein stability index value associated with the variant K4P
-- reply 1.96

Sourced from the supplement of paper PMC10567573
